Test system: colon (HCT116) tumor cell line
experimental-protocol: Methylene Blue Growth Inhibition Assay, HCT116
Assay type: cell-based
measurement-conditions: Homo sapiens, HCT-116, 72 h; Cell Line HCT116, 3 days; read-out: MeB IC50
measured-parameter: IC50

compound	IC50
COc1cc2ncn(-c3cc(OCc4ccccc4[N+](=O)[O-])c(C(N)=O)s3)c2cc1OC [Example 92]	< 1000 nM
NC(=O)c1sc(-n2cnc3cc(C(=O)NCCN4CCNC4=O)ccc32)cc1OCc1ccccc1C(F)(F)F [Example 156]	> 10000 nM
C=Cc1ccccc1COc1cc(-n2cnc3cc(OC)c(OC)cc32)sc1C(N)=O [Example 103]	1000 to 10000 nM
COc1cc2ncn(-c3cc(OCc4ccccc4C(F)(F)F)c(C(=O)O)s3)c2cc1OC [Example 75]	1000 to 10000 nM

Query string: Quick check: IC50 of CC(Oc1cc(-n2cnc3cc(N)ccc32)sc1C(N)=O)c1ccccc1Cl (centres unmarked) [Example 157] ?
Result string: < 1000 nM

Query string: Quick check: IC50 of COc1cc2ncn(-c3cc(OCC4CCCCC4)c(C(N)=O)s3)c2cc1OC [Example 111] ?
Result string: 1000 to 10000 nM

Query string: Quick check: IC50 of CS(=O)(=O)CCNC(=O)c1ccc2c(c1)ncn2-c1cc(OCc2ccccc2C(F)(F)F)c(C(N)=O)s1 [Example 155] ?
Result string: > 10000 nM

Query string: Quick check: IC50 of COc1cc2ncn(-c3cc(OCc4ccccc4C(F)(F)F)c(C(N)=O)s3)c2cc1OCCN1CCOCC1 [Example 137] ?
Result string: < 1000 nM

* * *

experimental-system: PLK1 kinase domain (Homo sapiens, UniProt P53350)
Construct: made in house; host or cells: baculovirus-infected T. ni insect cells
Sequence (P53350 21-346): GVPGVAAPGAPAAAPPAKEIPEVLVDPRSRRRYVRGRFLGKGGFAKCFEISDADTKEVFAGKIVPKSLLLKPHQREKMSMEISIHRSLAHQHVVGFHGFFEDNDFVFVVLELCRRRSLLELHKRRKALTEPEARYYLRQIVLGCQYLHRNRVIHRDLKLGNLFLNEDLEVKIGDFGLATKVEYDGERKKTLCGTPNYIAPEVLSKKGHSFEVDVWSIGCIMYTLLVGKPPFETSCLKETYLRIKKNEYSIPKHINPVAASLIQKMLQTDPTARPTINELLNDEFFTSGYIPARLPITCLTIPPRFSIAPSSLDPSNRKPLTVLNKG
experimental-protocol: Assay for Inhibition of PLK1 (SPA enzyme activity)
Format: biochemical
measurement-conditions: 2 μM ATP, read-out: Ave pIC50 PLK Enzyme Inhibition (converted)
measured-parameter: IC50

compound	IC50
NC(=O)c1sc(-n2cnc3ccccc32)cc1C#Cc1ccccc1	100 to 10000 nM
NC(=O)c1sc(-n2cnc3ccc(Br)cc32)cc1OCc1ccccc1C(F)(F)F	< 100 nM
COc1cc2ncn(-c3cc(OCc4ccccc4C(F)(F)F)c(C(N)=O)s3)c2cc1OCCCN(C)C	< 100 nM

Query string: Quick check: IC50 of "COc1cc2ncn(-c3cc(OCc4ccccc4SC)c(C(N)=O)s3)c2cc1OC" ?
Result string: < 100 nM

Query string: Quick check: IC50 of "CS(=O)(=O)N1CCC(COc2cc(-n3cnc4cc5c(cc43)OCCO5)sc2C(N)=O)CC1" ?
Result string: 100 to 10000 nM

Query string: Quick check: IC50 of "O=C(NO)c1sc(-n2cnc3ccccc32)cc1OCc1ccccc1" ?
Result string: 100 to 10000 nM

Query string: Quick check: IC50 of "COc1cc2ncn(-c3cc(OCc4ccccc4C(C)=O)c(C(N)=O)s3)c2cc1OC" ?
Result string: < 100 nM

Query string: Quick check: IC50 of "COc1cc2ncn(-c3cc(OCc4ccccc4OC(F)(F)F)c(C(N)=O)s3)c2cc1OC" ?
Result string: < 100 nM

Query string: Quick check: IC50 of "NC(=O)c1sc(-n2cnc3cc(C(=O)NCCN4CCNC4=O)ccc32)cc1OCc1ccccc1C(F)(F)F" ?
Result string: < 100 nM

Query string: Quick check: IC50 of "Cc1ccccc1COc1cc(-n2cnc3ccccc32)sc1C(N)=O" ?
Result string: < 100 nM

Query string: Quick check: IC50 of "NC(=O)c1sc(-n2c(N)nc3ccccc32)cc1OCc1ccccc1C(F)(F)F" ?
Result string: 100 to 10000 nM

Query string: Quick check: IC50 of "NC(=O)c1sc(-n2cnc3cc(Cl)ccc32)cc1OCc1ccccc1" ?
Result string: < 100 nM

Query string: Quick check: IC50 of "O=C(O)c1sc(-n2cnc3ccc(Br)cc32)cc1OCc1ccccc1C(F)(F)F" ?
Result string: < 100 nM

Query string: Quick check: IC50 of "COc1cc2ncn(-c3cc(OCc4ccccc4C#N)c(C(N)=O)s3)c2cc1OC" ?
Result string: < 100 nM

Query string: Quick check: IC50 of "NC(=O)c1sc(-n2cnc3ccccc32)cc1NS(=O)(=O)c1ccccc1" ?
Result string: < 100 nM

Query string: Quick check: IC50 of "COc1cc2ncn(-c3cc(OCc4ccccc4-c4ccccc4)c(C(N)=O)s3)c2cc1OC" ?
Result string: 100 to 10000 nM

Query string: Quick check: IC50 of "NC(=O)c1sc(-n2cnc3ccc(OCCN4CCCC4)cc32)cc1OCc1ccccc1C(F)(F)F" ?
Result string: < 100 nM

Query string: Quick check: IC50 of "NC(=O)c1ccc2c(c1)ncn2-c1cc(OCc2ccccc2C(F)(F)F)c(C(N)=O)s1" ?
Result string: < 100 nM

Query string: Quick check: IC50 of "COc1cc2ncn(-c3cc(OCc4c(Cl)cccc4Cl)c(C(N)=O)s3)c2cc1OC" ?
Result string: < 100 nM

Query string: Quick check: IC50 of "O=C(O)c1sc(-n2cnc3ccc(Cl)cc32)cc1OCc1cccnc1" ?
Result string: < 100 nM

Query string: Quick check: IC50 of "COc1cc2ncn(-c3cc(OCc4ccnc(N)c4)c(C(N)=O)s3)c2cc1OC" ?
Result string: < 100 nM

Query string: Quick check: IC50 of "O=C(O)c1sc(-n2cnc3cc(Cl)c(Cl)cc32)cc1OCc1cccs1" ?
Result string: < 100 nM

Query string: Quick check: IC50 of "COc1ccc(COc2cc(-n3cnc4cc(OC)c(OC)cc43)sc2C(N)=O)cc1" ?
Result string: 100 to 10000 nM

Query string: Quick check: IC50 of COc1cc2ncn(-c3cc(OCc4ccccc4[S+](C)[O-])c(C(N)=O)s3)c2cc1OC (stereo not drawn) ?
Result string: 100 to 10000 nM

* * *

Test system: A549
experimental-protocol: Methylene Blue Growth Inhibition Assay, A549
Format: cell-based
measurement-conditions: Homo sapiens; Cell Line A549; read-out: MeB IC50
pIC50: −log10 of the molar value.
measured-parameter: pIC50

molecule	pIC50
COc1cc2ncn(-c3cc(OCc4cc5c(cc4Cl)OCO5)c(C(N)=O)s3)c2cc1OC	> 6.00
COc1cc2ncn(-c3cc(OCc4ccccc4OC(F)F)c(C(N)=O)s3)c2cc1OC	> 6.00
COc1cc2ncn(-c3cc(OCc4cccnc4Cl)c(C(N)=O)s3)c2cc1OC	5.00 to 6.00
COc1cc2ncn(-c3cc(OC(C)c4ccccc4C(F)(F)F)c(C(N)=O)s3)c2cc1OC (stereo not drawn)	> 6.00
COc1cc2ncn(-c3cc(OC(C)c4ccccc4Cl)c(C(N)=O)s3)c2cc1OC (stereo not drawn)	> 6.00

Could you now look at the following molecule, please?
Query string: Report pIC50 for "COc1cc2c(cc1OCCCN1CCCC1=O)ncn2-c1cc(OCc2ccccc2C(F)(F)F)c(C(N)=O)s1" tested on A549.
Result string: 5.00 to 6.00

* * *

experimental-system: PLK1 kinase domain (Homo sapiens, UniProt P53350)
Construct: made in house; host or cells: baculovirus-infected T. ni insect cells
experimental-protocol: Assay for Inhibition of PLK1 (SPA enzyme activity)
Assay type: biochemical
measurement-conditions: 2 μM ATP, read-out: Ave pIC50 PLK Enzyme Inhibition (converted)
Description: All procedures were performed at 4° C. Cells were lysed in so mM HEPES, 200 mM NaCl, so mM imidazole, 5% glycerol; pH 7.5. The homogenate was centrifuged at 14K rpm in a SLA-1500 rotor for 1 hr and the supernatant filtered through a 1.2 micron filter. […] Fractions containing PLK were determined by SDS-PAGE. […] Fractions containing PLK were determined by SDS-PAGE. […] B. Enzyme activity+/−inhibitors was determined as follows: […]
Structures can show the parent of a compound that is named as a salt.
measured-parameter: IC50

Guide cases for IC50, answers given:
molecule	IC50
O=C(O)c1sc(-n2cnc3ccc(Cl)cc32)cc1OCc1ccc(F)cc1Cl [Example 70]	< 100 nM
NC(=O)c1sc(-n2cnc3cc4c(cc32)OC(F)(F)O4)cc1OCc1ccccc1C(F)(F)F [Example 88]	100 to 10000 nM
COc1cc2ncn(-c3cc(O)c(C(N)=O)s3)c2cc1OC [Example 152, trifluoroacetate]	100 to 10000 nM
COc1ccc2ncn(-c3cc(OCc4ccccc4C(F)(F)F)c(C(N)=O)s3)c2c1 [Example 118]	< 100 nM
COc1cc2ncn(-c3cc(OCc4cc5c(cc4Cl)OCO5)c(C(N)=O)s3)c2cc1OC [Example 91]	< 100 nM

Query string: Quick check: IC50 of CS(=O)(=O)CCNC(=O)c1ccc2c(c1)ncn2-c1cc(OCc2ccccc2C(F)(F)F)c(C(N)=O)s1 [Example 155] ?
Result string: < 100 nM

Query string: Quick check: IC50 of COc1cc2ncn(-c3cc(OCc4ccccc4C(O)CO)c(C(N)=O)s3)c2cc1OC (stereo not drawn) [Example 109] ?
Result string: 100 to 10000 nM

Query string: Quick check: IC50 of O=C(O)c1sc(-n2cnc3cc(Cl)c(Cl)cc32)cc1OCc1ccco1 [Example 78] ?
Result string: < 100 nM

Query string: Quick check: IC50 of COc1cc2ncn(-c3cc(OCc4ccccc4[N+](=O)[O-])c(C(N)=O)s3)c2cc1OC [Example 92] ?
Result string: < 100 nM
